# protocol: Antioxidant activity assessed as ABTS+ radical scavenging capacity after 16 hrs by UV spectrophotometry
# Format: physicochemical

>  <molecule>
CC[C@H](C)CC/C(C)=C/c1c(C)c(O)cc2c1[nH]c1c(O)ccc(CO)c12

>  <IC50>
116 µM

$$$$
>  <molecule>
CC(C)=CCc1ccc2[nH]c3c(CC(C)O)c(C)c(O)cc3c2c1 (stereo unspecified)

>  <IC50>
175 µM

$$$$
>  <molecule>
C/C(=C\c1c(C)c(O)cc2c1[nH]c1c(O)ccc(C=O)c12)CCC(C)C

>  <IC50>
52.6 µM

$$$$
>  <molecule>
CC(C)=CCc1ccc2[nH]c3c(c2c1)C(=O)C(=O)C(C)=C3CC(C)O (stereo unspecified)

>  <IC50>
> 500 µM

$$$$
>  <molecule>
CCCOC(=O)c1cc(O)c(O)c(O)c1 [PROPYL GALLATE]

>  <IC50>
188 µM

$$$$
>  <molecule>
Cc1c(O)cc2c([nH]c3ccccc32)c1CC(C)O (stereo unspecified)

>  <IC50>
161 µM

$$$$
>  <molecule>
Cc1c(C)c2c(c(C)c1O)CC[C@@](C)(CCC[C@H](C)CCC[C@H](C)CCCC(C)C)O2

>  <IC50>
211 µM

$$$$
>  <molecule>
C/C(=C\c1c(C)c(O)cc2c1[nH]c1c(O)ccc(CO)c12)CCC(C)C

>  <IC50>
112 µM

$$$$
>  <molecule>
CCCCCCCc1c(C)c(O)cc2c1[nH]c1ccccc12

>  <IC50>
159 µM

$$$$
>  <molecule>
CC[C@H](C)CC/C(C)=C/c1c(C)c(O)cc2c1[nH]c1c(O)ccc(C=O)c12

>  <IC50>
57.1 µM

$$$$
>  <molecule>
CC1=NN(c2ccccc2)C(=O)C1

>  <IC50>
214 µM

$$$$
